The reader will find reported CC50 at 24 h values listed item by item below.
Assay: in vitro
Details: chlorocebus sabaeus
State the answer as a number, implicitly in µM.

Reference set (3 entries):
O=C(CNCCC1CCN(Cc2ccccc2)CC1)Nc1ccccc1Sc1cc(Cl)ccc1[N+](=O)[O-] 150
O=C(CCNCCC1CCN(Cc2ccccc2)CC1)Nc1ccccc1Sc1cc(Cl)ccc1[N+](=O)[O-] 9
O=C(CCN1CCCC1)Nc1ccccc1Nc1cc(Cl)ccc1[N+](=O)[O-] 250

Request: Recorded CC50 at 24 h of O=C(CNCCC1CCN(Cc2ccccc2)CC1)Nc1ccccc1Nc1cc(Cl)ccc1[N+](=O)[O-] , please.
Response: 10

---

List of CC50 at 24 h values.
Assay: in vitro
Settings: chlorocebus sabaeus
// note: answer is a bare numeric in µM

Completed entries (count: 3):
CCN(CC)CCC(=O)Nc1ccccc1Sc1cc(Cl)ccc1[N+](=O)[O-] 150
O=C(CCNCCc1ccccc1)Nc1ccccc1Nc1cc(Cl)ccc1[N+](=O)[O-] 15
CCN(CC)CCC(=O)Nc1ccccc1Nc1cc(Cl)ccc1[N+](=O)[O-] 150

Next molecule, please.
Request: // returns reported CC50 at 24 h for input O=C(CCN1CCCC1)Nc1ccccc1Sc1cc(Cl)ccc1[N+](=O)[O-]
Response: 300

---

As shown below, each of these compounds has a reported Papp value.
Test: in vitro
Conditions: PAMPA, pH 7.4
Report field: quantity (unit follows the number).

Would you please look over these solved cases?
COMPOUND	ENDPOINT_RESULT
CN(C)CCCN1c2ccccc2Sc2ccccc21 [Promazine, reference compound]	9.1 ×10⁻⁶ cm/s
Cn1c(=O)c2c(ncn2C)n(C)c1=O [Caffeine, reference compound]	1.5 ×10⁻⁶ cm/s

We next turn to a different compound, shown below.
Request: For the compound shown here, CCn1cc(C(=O)O)c(=O)c2cc(F)c(N3CCNCC3)nc21 [Enoxacin, reference compound] , give the reported Papp.
Response: 1.2 ×10⁻⁶ cm/s

---

CC50 overview
Assay: in vitro
Settings: African green monkey

Request: Looking for the measured CC50 of O=C(CCNCCc1ccccc1)Nc1ccccc1Sc1cc(Cl)ccc1[N+](=O)[O-] , can you help?
Response: > 200 µM

Request: Entry O=C(CN1CCCCC1)Nc1ccccc1Sc1cc(Cl)ccc1[N+](=O)[O-] has what CC50?
Response: > 200 µM

Request: What does the record list as CC50 for CN(C)CCOc1ccc(/C(=C(/CCCl)c2ccccc2)c2ccccc2)cc1 [Toremifene, reference compound] ?
Response: 10 µM

Request: Sample CCN(CC)CC(=O)Nc1ccccc1Sc1cc(Cl)ccc1[N+](=O)[O-] — what was its CC50?
Response: > 200 µM

Request: Look up CC50 for this compound: O=C(CN1CCCC1)Nc1ccccc1Sc1cc(Cl)ccc1[N+](=O)[O-]
Response: > 200 µM

Request: Return reported CC50; argument: O=C(CNCc1ccccc1)Nc1ccccc1Sc1cc(Cl)ccc1[N+](=O)[O-]
Response: > 200 µM

---

// EBOV-GP-pseudotype virus (pEBOV) SI (pEBOV) (CC50/EC50) records
Keep it simple and answer with nothing but the number.

The following compounds have reported results that may help.
SMILES_REPR	TEST_TARGET	SI (pEBOV) (CC50/EC50)
O=C(CNCCC1CCN(Cc2ccccc2)CC1)Nc1ccccc1Sc1cc(Cl)ccc1[N+](=O)[O-]	EBOV-GP-pseudotype virus (pEBOV)	26.7
CCN(CC)CCC(=O)Nc1ccccc1Sc1cc(Cl)ccc1[N+](=O)[O-]	EBOV-GP-pseudotype virus (pEBOV)	16.9

Request: Short answer please: SI (pEBOV) (CC50/EC50), EBOV-GP-pseudotype virus (pEBOV), entry O=C(CCN1CCCC1)Nc1ccccc1Nc1cc(Cl)ccc1[N+](=O)[O-]
Response: 27.9

Request: What is its SI (pEBOV) (CC50/EC50) for EBOV-GP-pseudotype virus (pEBOV)? Entry: CCN(CC)CCC(=O)Nc1ccccc1Nc1cc(Cl)ccc1[N+](=O)[O-]
Response: 19.6

Request: Query the reported SI (pEBOV) (CC50/EC50) for EBOV-GP-pseudotype virus (pEBOV); item: O=C(CCN1CCCC1)Nc1ccccc1Sc1cc(Cl)ccc1[N+](=O)[O-]
Response: 61.2
